System: Cavia porcellus
Experimental protocol: Protection against histamine-induced lethality in guinea pig at 1 hr pretreatment time upon peroral administration.
Assay type: functional
Setup conditions: po
Provide the reported ED50 of each item.
One number for each entry, in µg/kg.

{"Compound": "CN(C)CCC(c1ccccn1)c1ccc(Cl)cn1 (stereo not drawn)", "System": "Cavia porcellus", "Unit symbol": "µg/kg", "ED50": 9}

Provide each entry's ED50 from the list below.
1. CN1C[C@H](CCN2CCC2)Oc2ncc(Cl)cc2C1=S
2. CN1C[C@@H](CCN2CCC2)Oc2ncc(Cl)cc2C1=S

8280
5.4

---

System: UniProt:P31389
Experimental protocol: Inhibition of [3H]mepyramine binding to the histamine receptor in guinea pig cortex
Format: tissue-based
Consider the following molecules; for each one, report its IC50.
Express the reported value numerically, then name its unit.

Worked cases, IC50 given:
{"Line notation": "CN1C[C@@H](CCN2CCC2)Oc2ncc(Cl)cc2C1=S", "IC50": "0.26 nM"}
{"Line notation": "CN(C)CC[C@@H]1CN(C)C(=S)c2cc(Cl)cnc2O1", "IC50": "1.9 nM"}

Documented IC50 of `CN(C)CC[C@@H]1CN(C)C(=S)c2cccnc2O1` : 30 nM

---

System: Cavia porcellus
Experimental protocol: Protection against histamine-induced lethality in guinea pig at 1 hr pretreatment time upon peroral administration.
Type: functional
Setup conditions: po
Property: ED50 (mg/kg)
Numbers only, in mg/kg.

Known ED50 results, listed for orientation:
{"Compound": "CN(C)CCC(c1ccc(Cl)cc1)c1ccccn1 (stereo unspecified) [CHLORPHENIRAMINE]", "Unit symbol": "mg/kg", "ED50": 0.18}
{"Compound": "CN(C)CC[C@H]1CN(C)C(=S)c2cccnc2O1", "Unit symbol": "mg/kg", "ED50": 23}
{"Compound": "CN(C)CC[C@@H]1CN(C)C(=S)c2cccnc2O1", "Unit symbol": "mg/kg", "ED50": 0.07}

Quick request: ED50 for each listed item, please.
1. CN(C)CC[C@@H]1CN(C)C(=S)c2cc(Cl)cnc2O1
2. CN(C)CC[C@H]1CN(C)C(=S)c2cc(Cl)cnc2O1

[0.013, 66.8]

---

System: Histamine H1 receptor (Cavia porcellus)
Sequence (P31389 whole entry): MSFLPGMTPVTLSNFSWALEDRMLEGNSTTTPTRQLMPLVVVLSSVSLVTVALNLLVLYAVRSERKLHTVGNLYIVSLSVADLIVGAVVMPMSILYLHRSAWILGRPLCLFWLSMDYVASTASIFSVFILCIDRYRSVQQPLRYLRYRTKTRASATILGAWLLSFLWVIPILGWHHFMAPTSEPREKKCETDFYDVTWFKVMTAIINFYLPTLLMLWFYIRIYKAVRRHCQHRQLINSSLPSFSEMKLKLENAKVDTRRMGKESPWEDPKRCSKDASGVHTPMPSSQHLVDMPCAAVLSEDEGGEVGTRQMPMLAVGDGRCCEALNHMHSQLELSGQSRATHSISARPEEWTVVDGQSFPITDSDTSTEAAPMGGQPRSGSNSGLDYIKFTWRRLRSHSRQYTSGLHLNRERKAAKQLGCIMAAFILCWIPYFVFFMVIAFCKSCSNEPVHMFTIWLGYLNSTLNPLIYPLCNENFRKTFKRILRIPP
Experimental protocol: Inhibition of [3H]mepyramine binding to the Histamine H1 receptor in guinea pig cortex
Type: tissue-based
Please respond with reported IC50 for every item in the list.
Give bare numbers, in µM.

# annotated cases, reported IC50 shown
{"Molecule": "CN(C)CCC(c1ccc(Cl)cc1)c1ccc(Cl)cn1 (stereo not given)", "Reported value": 0.43}
{"Molecule": "CN(C)CC[C@H]1CN(C)C(=S)c2cccnc2O1", "Reported value": 21}
{"Molecule": "CN1C[C@H](CCN2CCC2)Oc2ncc(Cl)cc2C1=S", "Reported value": 0.87}

Hey, quick one: what's IC50 for each of these?
1. CN(C)CC[C@H]1CN(C)C(=S)c2cc(Cl)cnc2O1
2. CN(C)CCC(c1ccccn1)c1ccc(Cl)cn1 (stereo not given)

11.9
0.024

Where do these numbers come from? They come from ChEMBL document CHEMBL1125659.
